These measurements were taken from paper PMC12135066.

Can you tell me tissue uptake at 24 h for the items I'm about to list?
assay: Biodistribution studies in HEK-uPAR xenograft-bearing nude mice; conditions: female, CD1/nude, mouse, heart, 5 MBq (0.5 nmol), total radioactivity, 24 h p.i.; 5 MBq, 0.5 nmol; decay-corrected; average ± SD, n=3 animals
Response body: numeric value in %ID/g, unit text excluded.

-- ask If you can, please state the reported tissue uptake at 24 h value of CC(C)C[C@H](NC(=O)[C@H](Cc1ccc(O)cc1)NC(=O)[C@@H](CCCNC(=N)N)NC(=O)[C@@H](CO)NC(=O)[C@H](Cc1ccccc1)NC(=O)[C@H](CC1CCCCC1)NC(=O)[C@H](CC(=O)O)NC(=O)CCOCCOCCOCCOCCNC(=O)[C@H](CCCCNC(=O)CCCc1ccc(I)cc1)NC(=O)CN1CCN(CC(=O)O)CCN(CC(=O)O)CCN(CC(=O)O)CC1)C(=O)N[C@@H](Cc1c[nH]c2ccccc12)C(=O)N[C@@H](CO)C(N)=O [[^177Lu]Lu-uPAR-05, metal not drawn] .
-- reply 1.6

-- ask If you can, please state the reported tissue uptake at 24 h value of CC(C)C[C@H](NC(=O)[C@H](Cc1ccc(O)cc1)NC(=O)[C@@H](CCCNC(=N)N)NC(=O)[C@@H](CO)NC(=O)[C@H](Cc1ccccc1)NC(=O)[C@H](CC1CCCCC1)NC(=O)[C@H](CC(=O)O)NC(=O)[C@H](CCCCNC(=O)CCCc1ccc(I)cc1)NC(=O)CN1CCN(CC(=O)O)CCN(CC(=O)O)CCN(CC(=O)O)CC1)C(=O)N[C@@H](Cc1c[nH]c2ccccc12)C(=O)N[C@@H](CO)C(N)=O [[^177Lu]Lu-uPAR-01, metal not drawn] .
-- reply 1.9

-- ask If you can, please state the reported tissue uptake at 24 h value of CC(C)C[C@H](NC(=O)[C@H](Cc1ccc(O)cc1)NC(=O)[C@@H](CCCNC(=N)N)NC(=O)[C@@H](CO)NC(=O)[C@H](Cc1ccccc1)NC(=O)[C@H](CC1CCCCC1)NC(=O)[C@H](CC(=O)O)NC(=O)[C@H](CCCCNC(=O)CCCc1ccc(I)cc1)NC(=O)[C@@H](N)CCCCNC(=O)CN1CCN(CC(=O)O)CCN(CC(=O)O)CCN(CC(=O)O)CC1)C(=O)N[C@@H](Cc1c[nH]c2ccccc12)C(=O)N[C@@H](CO)C(N)=O [[^177Lu]Lu-uPAR-04, metal not drawn] .
-- reply 3
